- assay_procedure: Cytotoxicity against mouse J774.2 cells assessed as cell growth inhibition incubated for 72 hrs by MTT assay
- Assay type: toxicity, cell-based
Assignment: determine reported log10 IC50 at 72 h for the given compounds.
Remember, log10 of IC50 at 72 h, in µM.

Form field log10 IC50 at 72 h, entry O=C1C2=C(C(=O)c3c(O)cccc31)C(c1cccs1)c1sc(=O)[nH]c1S2 (stereo unspecified) : 0.83

Form field log10 IC50 at 72 h, entry COc1cccc2c1C(=O)c1c(O)c3c(c(O)c1C2=O)C[C@@](O)(C(=O)CO)C[C@@H]3O[C@H]1C[C@H](N)[C@H](O)[C@H](C)O1 : -0.25

Form field log10 IC50 at 72 h, entry O=C1C2=C(C(=O)c3c(O)cccc31)C(c1ccc(Cl)cc1)c1sc(=O)[nH]c1S2 (stereo unspecified) : 0.72

Form field log10 IC50 at 72 h, entry O=C1C2=C(C(=O)c3c(O)cccc31)C(/C=C/c1ccccc1[N+](=O)[O-])c1sc(=O)[nH]c1S2 (stereo unspecified) : -0.08

Form field log10 IC50 at 72 h, entry O=C1C2=C(C(=O)c3c(O)cccc31)C(c1cc(Cl)ccc1O)c1sc(=O)[nH]c1S2 (stereo unspecified) : 0.72

* * *

- assay_procedure: Cytotoxicity against human HaCaT cells assessed as cell growth inhibition incubated for 72 hrs by MTT assay
- Assay type: toxicity, cell-based
- condition_context: HaCaT cells
quantity: IC50 at 72 h

Form field IC50 at 72 h, entry O=C1C2=C(C(=O)c3c(O)cccc31)C(c1ccc(Cl)cc1)c1sc(=O)[nH]c1S2 (stereo not drawn) : > 50 µM

Form field IC50 at 72 h, entry O=C1C2=C(C(=O)c3c(O)cccc31)C(c1ccc(Br)cc1)c1sc(=O)[nH]c1S2 (stereo not drawn) : > 50 µM

Form field IC50 at 72 h, entry O=C1C2=C(C(=O)c3c(O)cccc31)C(c1cc(Cl)ccc1O)c1sc(=O)[nH]c1S2 (stereo not drawn) : > 50 µM

Form field IC50 at 72 h, entry O=C1C2=C(C(=O)c3c(O)cccc31)C(c1ccco1)c1sc(=O)[nH]c1S2 (stereo not drawn) : 37.2 µM

Form field IC50 at 72 h, entry CC1(C)C2=C(Sc3[nH]c(=O)sc31)C(=O)c1cccc(O)c1C2=O : > 50 µM

Form field IC50 at 72 h, entry COc1cccc2c1C(=O)c1c(O)c3c(c(O)c1C2=O)C[C@@](O)(C(=O)CO)C[C@@H]3O[C@H]1C[C@H](N)[C@H](O)[C@H](C)O1 : 4.56 µM

Form field IC50 at 72 h, entry CN(C)c1ccc(C2C3=C(Sc4[nH]c(=O)sc42)C(=O)c2cccc(O)c2C3=O)cc1 (stereo not drawn) : > 50 µM

Form field IC50 at 72 h, entry COc1ccc(C2C3=C(Sc4[nH]c(=O)sc42)C(=O)c2cccc(O)c2C3=O)cc1 (stereo not drawn) : 40.8 µM

* * *

- System: Salmon testes DNA
- assay_procedure: Displacement of methyl green from salmon sperm DNA assessed as DNA intercalation at 10 uM incubated for 24 hrs by fluorescence plate reader method relative to control
- Format: nucleic-acid assay
- condition_context: Salmo salar
quantity: Activity (%)
# value in %; strip the unit string

Form field Activity, entry O=C1C2=C(C(=O)c3c(O)cccc31)C(/C=C/c1ccccc1)c1sc(=O)[nH]c1S2 (stereo not given) : 11.8

Form field Activity, entry O=C1C2=C(C(=O)c3c(O)cccc31)C(CCc1ccccc1)c1sc(=O)[nH]c1S2 (stereo not given) : 11.8

Form field Activity, entry O=C1C2=C(C(=O)c3c(O)cccc31)C(/C=C/c1ccccc1[N+](=O)[O-])c1sc(=O)[nH]c1S2 (stereo not given) : 53.2

Form field Activity, entry O=C1C2=C(C(=O)c3c(O)cccc31)C(c1cc(Cl)ccc1O)c1sc(=O)[nH]c1S2 (stereo not given) : 29.5

Form field Activity, entry O=C1C2=C(C(=O)c3c(O)cccc31)C(c1cccs1)c1sc(=O)[nH]c1S2 (stereo not given) : 66.4

* * *

- assay_procedure: Cytotoxicity against human Lymphocyte cells assessed as cell growth inhibition incubated for 72 hrs by MTT assay
- Assay type: toxicity, cell-based
- condition_context: lymphocytes
quantity: IC50 at 72 h (µM)
# value in µM; strip the unit string

Form field IC50 at 72 h, entry COc1cccc2c1C(=O)c1c(O)c3c(c(O)c1C2=O)C[C@@](O)(C(=O)CO)C[C@@H]3O[C@H]1C[C@H](N)[C@H](O)[C@H](C)O1 [DOXORUBICIN] : 10

* * *

- assay_procedure: Cytotoxicity against mouse NIH3T3 cells assessed as cell growth inhibition incubated for 72 hrs by MTT assay
- Assay type: toxicity, cell-based
IC50 at 72 h strictly less than 40 µM = condition met. Otherwise condition not met.

Lookup: is_below(IC50 at 72 h, 40 µM) for O=C1C2=C(C(=O)c3c(O)cccc31)C(c1ccco1)c1sc(=O)[nH]c1S2 (stereo not given) ?
Found: condition met

Lookup: is_below(IC50 at 72 h, 40 µM) for O=C1C2=C(C(=O)c3c(O)cccc31)C(c1ccc(Cl)cc1)c1sc(=O)[nH]c1S2 (stereo not given) ?
Found: condition not met

Lookup: is_below(IC50 at 72 h, 40 µM) for O=C1C2=C(C(=O)c3c(O)cccc31)C(c1ccc(Br)cc1)c1sc(=O)[nH]c1S2 (stereo not given) ?
Found: condition met

Lookup: is_below(IC50 at 72 h, 40 µM) for CC1(C)C2=C(Sc3[nH]c(=O)sc31)C(=O)c1cccc(O)c1C2=O ?
Found: condition not met

Lookup: is_below(IC50 at 72 h, 40 µM) for CN(C)c1ccc(C2C3=C(Sc4[nH]c(=O)sc42)C(=O)c2cccc(O)c2C3=O)cc1 (stereo not given) ?
Found: condition not met

Lookup: is_below(IC50 at 72 h, 40 µM) for O=C1C2=C(C(=O)c3c(O)cccc31)C(c1cc(Cl)ccc1O)c1sc(=O)[nH]c1S2 (stereo not given) ?
Found: condition met

Lookup: is_below(IC50 at 72 h, 40 µM) for COc1ccc(C2C3=C(Sc4[nH]c(=O)sc42)C(=O)c2cccc(O)c2C3=O)cc1 (stereo not given) ?
Found: condition met

Lookup: is_below(IC50 at 72 h, 40 µM) for COc1cccc2c1C(=O)c1c(O)c3c(c(O)c1C2=O)C[C@@](O)(C(=O)CO)C[C@@H]3O[C@H]1C[C@H](N)[C@H](O)[C@H](C)O1 ?
Found: condition met
